target: Human immunodeficiency virus type 1 reverse transcriptase (Human immunodeficiency virus 1) (UniProt Q72547); test: Inhibition of HIV1 reverse transcriptase upto 100 uM by ELISA
Calls of active or inactive are those of the source. The calls are words filed in the database; no cut-off is given here.
Measure Name: Activity

- Smiles Text: "Cc1c(CNc2c(Cl)cc(Cl)cc2Cl)c(=O)[nH]c(=O)n1COCc1ccccc1"
  Value Observed: "inactive"
- Smiles Text: "CCOCn1c(C)c(CNc2ccc(C)cc2)c(=O)[nH]c1=O"
  Value Observed: "inactive"
- Smiles Text: "CCOCn1c(C)c(CNc2ncccn2)c(=O)[nH]c1=O"
  Value Observed: "inactive"

These entries and their values trace back to ChEMBL document CHEMBL1137526.
